B1: CPEB3 Ribozyme (parent)
chain: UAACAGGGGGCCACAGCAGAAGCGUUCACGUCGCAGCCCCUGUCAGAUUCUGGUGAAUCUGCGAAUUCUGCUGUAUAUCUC

Variants of: B1
experimental_details: self-cleavage, relative activity (ratio to wild type); higher = more cleavage; in vitro, sequencing
Short version: self-cleavage at least 0.5 is Y, less is N.

U26A C29G | N
U72A A75G | Y
G6C C62U | N
A45C C81U | N
U72C C79A | Y

// switching to the query variant
Form field: self-cleavage at least 0.5? Entry: A15G G42A
N
